Target: T1, His-bHLH34 (Arabidopsis thaliana, UniProt Q9LTC7 1-320)
T1 sequence: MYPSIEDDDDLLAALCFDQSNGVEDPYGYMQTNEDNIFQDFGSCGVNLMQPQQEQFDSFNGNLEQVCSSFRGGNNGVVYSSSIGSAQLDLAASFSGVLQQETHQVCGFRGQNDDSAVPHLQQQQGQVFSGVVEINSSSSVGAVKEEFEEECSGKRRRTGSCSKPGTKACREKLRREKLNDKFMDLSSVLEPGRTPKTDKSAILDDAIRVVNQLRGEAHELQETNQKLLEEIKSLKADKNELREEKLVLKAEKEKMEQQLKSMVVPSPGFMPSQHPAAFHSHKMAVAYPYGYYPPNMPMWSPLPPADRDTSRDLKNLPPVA
Assay: EMSA; 10 mM Tris-HCl pH 7.5, 50 mM KCl, 1 mM EDTA, 1 mM DTT, 2.5% glycerol, 1 ug poly(dI-dC), 100 ng protein, 0.3 pmol DNA in 20 uL; 25 C 20 min; 5% native PAGE in TBE at 4 C
Conditions: protein: recombinant; tags: His tag (pET300/NT-DEST); chain copies: 2; label: 32P; blunt
Property label: binding result

E-box (dsDNA) DNA 1: CCGGCCACTTGTGCCA DNA 2: TGGCACAAGTGGCCGG : binds
DBE5 (dsDNA) DNA 1: AAATGAGATCAT DNA 2: ATGATCTCATTT : binds
DBE6 (dsDNA) DNA 1: GAGGGAGATTCA DNA 2: TGAATCTCCCTC : binds
